System: Enterococcus sp.
Measurement Description: in vitro antibacterial evaluation, MIC by broth dilution
Format: cell-based
Condition Info: broth dilution, inoculum 5×10^5 CFU/mL, 18 hours at 35° C.; strain GC 6189
Text: Methods for in vitro Antibacterial Evaluation (Table 1) […]
Endpoint Label: MIC Enterococcus faecalis (GC 6189) (µg/mL)
Please state the figure in µg/mL; there is no need to write the unit.

Reported MIC Enterococcus faecalis (GC 6189), compound CC(c1ccccc1)C1NC(=O)CNC(=O)C(CO)NC(=O)C(C(O)C2CNC(=N)N2C2OC(CO)C(O)C(O)C2O)NC(=O)C(C(O)C2CNC(=N)N2)NC(=O)C(Cc2ccc(OC3OC(CO)C(OC4OC5COC6(CCCCCCCCCCC6)OC5C(O)C4O)C(O)C3O)cc2)NC1=O (stereo not shown) : ____
1

###

Record form. Attribute: MIC Staphylococcus aureus (ATCC 29213). Fill in for each entry.
Tested on: Staphylococcus sp.
Measurement Description: in vitro antibacterial evaluation, MIC by broth dilution
Type: cell-based
Condition Info: strain ATCC 29213; broth dilution, 18 hours at 35° C.
Respond with the bare value in µg/mL.

I am curious: what MIC Staphylococcus aureus (ATCC 29213) value has been reported for CC(c1ccccc1)C1NC(=O)CNC(=O)C(CO)NC(=O)C(C(O)C2CNC(=N)N2C2OC(CO)C(O)C(O)C2O)NC(=O)C(C(O)C2CNC(=N)N2)NC(=O)C(Cc2ccc(OC3OC(CO)C(OC4OC(COC(=O)CCC5CCCC5)C(O)C(O)C4O)C(O)C3O)cc2)NC1=O (stereo not shown) [Example 100c] ?
1

Dear colleague, I am looking for the recorded MIC Staphylococcus aureus (ATCC 29213) of the following compound: CC(c1ccccc1)C1NC(=O)CNC(=O)C(CO)NC(=O)C(CC2CN(Cc3ccccc3)C(=N)N2C2OC(CO)C(O)C(O)C2O)NC(=O)C(CC2CNC(=N)N2)NC(=O)C(Cc2ccc(OC3OC(CO)C(OC4OC5COC6(OC5C(O)C4O)C4CC5CC(C4)CC6C5)C(O)C3O)cc2)NC1=O (stereo not shown) [Example 80]
32

# lookup: MIC Staphylococcus aureus (ATCC 29213) of COc1ccc(Oc2cccc(-c3nc4cc(CC5NC(=O)C(C(C)c6ccccc6)NC(=O)CNC(=O)C(CO)NC(=O)C(C(O)C6CNC(=N)N6C6OC(CO)C(O)C(O)C6O)NC(=O)C(C(O)C6CNC(=N)N6)NC5=O)ccc4o3)c2)cc1 (stereo not shown) [Example 35]
8

###

Task for the reader: assign each of the following compounds its reported median effective dose (ED50), Staphylococcus aureus-SMITH (GC 4543).
Test system: Staphylococcus aureus-SMITH (GC 4543)
Measurement Description: acute lethal infection in mice
Assay type: in vivo
Condition Info: acute lethal infection, female CD-1 mice, intraperitoneal challenge, intravenous 30 min. after infection, 7 day survival
Express your answer in mg/kg, writing the number without its unit.

Name the reported median effective dose (ED50), Staphylococcus aureus-SMITH (GC 4543) value associated with the compound CC(C1CCCCC1)C1NC(=O)CNC(=O)C(CO)NC(=O)C(C(O)C2CNC(=N)N2C2OC(CO)C(O)C(O)C2O)NC(=O)C(C(O)C2CNC(=N)N2)NC(=O)C(Cc2ccc(OC3OC(CO)C(OC4OC5COC6(OC5C(O)C4O)C4CC5CC(C4)CC6C5)C(O)C3O)cc2)NC1=O (stereo not shown) [Example 221]
0.03

Would you kindly share the measured median effective dose (ED50), Staphylococcus aureus-SMITH (GC 4543) for CC(c1ccccc1)C1NC(=O)CNC(=O)C(CO)NC(=O)C(C(O)C2CNC(=N)N2C2OC(CO)C(O)C(O)C2O)NC(=O)C(C(O)C2CNC(=N)N2)NC(=O)C(Cc2ccc(OC3OC(CO)C(OC4OC5COC(c6ccc7c(c6)OCO7)OC5C(O)C4O)C(O)C3O)cc2)NC1=O (stereo not shown) [Example 143] ?
0.28

What value of measured median effective dose (ED50), Staphylococcus aureus-SMITH (GC 4543) is listed for COc1ccc(CC2OCC3OC(OC4C(CO)OC(Oc5ccc(CC6NC(=O)C(C(C)c7ccccc7)NC(=O)CNC(=O)C(CO)NC(=O)C(C(O)C7CNC(=N)N7C7OC(CO)C(O)C(O)C7O)NC(=O)C(C(O)C7CNC(=N)N7)NC6=O)cc5)C(O)C4O)C(O)C(O)C3O2)cc1 (stereo not shown) [Example 103] ?
0.28

// lookup median effective dose (ED50), Staphylococcus aureus-SMITH (GC 4543) for CCCCCC(=O)OCC1OC(OC2C(CO)OC(Oc3ccc(CC4NC(=O)C(C(C)c5ccccc5)NC(=O)CNC(=O)C(CO)NC(=O)C(C(O)C5CNC(=N)N5C5OC(CO)C(O)C(O)C5O)NC(=O)C(C(O)C5CNC(=N)N5)NC4=O)cc3)C(O)C2O)C(O)C(O)C1O (stereo not shown) [Example 95b]
4

Please look up its median effective dose (ED50), Staphylococcus aureus-SMITH (GC 4543): CC(c1ccccc1)C1NC(=O)CNC(=O)C(CO)NC(=O)C(C(O)C2CN(Cc3ccc(C(C)(C)C)cc3)C(=N)N2C2OC(CO)C(O)C(O)C2O)NC(=O)C(C(O)C2CNC(=N)N2)NC(=O)C(Cc2ccc(OC3OC(CO)C(OC4OC5COC6(OC5C(O)C4O)C4CC5CC(C4)CC6C5)C(O)C3O)cc2)NC1=O (stereo not shown) [Example 77]
4

Reported median effective dose (ED50), Staphylococcus aureus-SMITH (GC 4543), compound Cc1ccc(CC2OCC3OC(OC4C(CO)OC(Oc5ccc(CC6NC(=O)C(C(C)c7ccccc7)NC(=O)CNC(=O)C(CO)NC(=O)C(C(O)C7CNC(=N)N7C7OC(CO)C(O)C(O)C7O)NC(=O)C(C(O)C7CNC(=N)N7)NC6=O)cc5)C(O)C4O)C(O)C(O)C3O2)cc1 (stereo not shown) [Example 119] : ____
0.19

Requested field: median effective dose (ED50), Staphylococcus aureus-SMITH (GC 4543). Item: CC(c1ccccc1)C1NC(=O)CNC(=O)C(CO)NC(=O)C(C(O)C2CNC(=N)N2C2OC(CO)C(O)C(O)C2O)NC(=O)C(C(O)C2CNC(=N)N2)NC(=O)C(Cc2ccc(OC3OC(CO)C(OC4OC5COC(C6CC=CCC6)OC5C(O)C4O)C(O)C3O)cc2)NC1=O (stereo not shown) [Example 115]
0.23

###

Tested on: Staphylococcus sp.
Measurement Description: in vitro antibacterial evaluation, MIC by broth dilution
Type: cell-based
Condition Info: strain GC 1131; broth dilution, 18 hours at 35° C.
Provide the reported MIC Staphylococcus aureus (GC 1131) of each item.
Supply the numeric figure in µg/mL, leaving out any unit text.

Bench note: what MIC Staphylococcus aureus (GC 1131) did CC(c1ccccc1)C1NC(=O)CNC(=O)C(CO)NC(=O)C(C(O)C2CNC(=N)N2C2OC(CO)C(O)C(O)C2O)NC(=O)C(C(O)C2CNC(=N)N2)NC(=O)C(Cc2ccc3oc(C=C(c4ccccc4)c4ccccc4)nc3c2)NC1=O (stereo not shown) show?
16

Entry CCCCCC(=O)OCC1OC(Oc2ccc(CC3NC(=O)C(C(C)c4ccccc4)NC(=O)CNC(=O)C(CO)NC(=O)C(C(O)C4CNC(=N)N4C4OC(CO)C(O)C(O)C4O)NC(=O)C(C(O)C4CNC(=N)N4)NC3=O)cc2)C(O)C(O)C1OC1OC(CO)C(O)C(O)C1O (stereo not shown) [Example 95a] has what MIC Staphylococcus aureus (GC 1131)?
4

###

Test system: Enterococcus sp.
Measurement Description: in vitro antibacterial evaluation, MIC by broth dilution
Type: cell-based
Condition Info: broth dilution, 18 hours at 35° C.; strain ATCC 29212
Please provide measured MIC Enterococcus faecalis (ATCC 29212) for the entries that follow.
Unit mg/L implied. Number only.

Give MIC Enterococcus faecalis (ATCC 29212) (Enterococcus sp.) of the following compound: CC(c1ccccc1)C1NC(=O)CNC(=O)C(CO)NC(=O)C(CC2CNC(=N)N2C2OC(CO)C(O)C(O)C2O)NC(=O)C(CC2CNC(=N)N2)NC(=O)C(Cc2ccc(OC3OC(CO)C(OC4OC(COCc5ccc(OCc6ccccc6)cc5)C(O)C(O)C4O)C(O)C3O)cc2)NC1=O (stereo not shown)
16

Tell me reported MIC Enterococcus faecalis (ATCC 29212) for Cc1cccc(C2OCC3OC(OC4C(CO)OC(Oc5ccc(CC6NC(=O)C(C(C)c7ccccc7)NC(=O)CNC(=O)C(CO)NC(=O)C(C(O)C7CNC(=N)N7C7OC(CO)C(O)C(O)C7O)NC(=O)C(C(O)C7CNC(=N)N7)NC6=O)cc5)C(O)C4O)C(O)C(O)C3O2)c1 (stereo not shown) , tested with Enterococcus sp..
2

Fill in the recorded MIC Enterococcus faecalis (ATCC 29212) for this compound, with Enterococcus sp. as test system: CC(c1ccccc1)C1NC(=O)CNC(=O)C(CO)NC(=O)C(C(O)C2CNC(=N)N2C2OC(CO)C(O)C(O)C2O)NC(=O)C(C(O)C2CNC(=N)N2)NC(=O)C(Cc2ccc(OC3OC(CO)C(OC4OC(COC(=O)CCC5CCCC5)C(O)C(O)C4O)C(O)C3O)cc2)NC1=O (stereo not shown) [Example 100c]
4

These data points were gathered from patent US6914045B2.
